Tested on: CP211
assay explanation: qHTS profiling for inhibitors of Plasmodium falciparum proliferation (AID 504749); also: nearly all actives have a fitted effect of over 60% in size
condition: P. falciparum in erythrocytes, SYBR Green DNA, 72 h; series mostly up to 28.7 µM
Results filed as inconclusive are left out. Calls of active or inactive are those of the source. Calls follow the shape of the dose curve; as a rule, active = well fitted inhibition curve with a large enough effect; inconclusive = small, poorly fitted or top-dose-only effect; inactive = flat fitted curve, though single readings scatter.

{"compound": "CCCCC/C=C\\C/C=C\\C/C=C\\CCCCC(=O)O", "outcome": "inactive"}
{"compound": "CN(CCO)CC(O)Cn1cnc2c1c(=O)n(C)c(=O)n2C (configuration not stated) (tested in a mixture with another compound)", "outcome": "inactive"}
{"compound": "O=P(O)(O)CP(=O)(O)O", "outcome": "inactive"}
{"compound": "COc1ccc(-c2noc(CC(=O)O)c2-c2ccc(OC)cc2)cc1", "outcome": "inactive"}
{"compound": "S=C1SCN(Cc2ccccc2)CN1Cc1ccccc1", "outcome": "inactive"}
{"compound": "O=C(O)/C=C/C(=O)Nc1ccc(S(=O)(=O)Nc2nccs2)cc1", "outcome": "inactive"}
{"compound": "CC1CC(OC(=O)C(O)c2ccccc2)CC(C)(C)C1 (configuration not stated)", "outcome": "inactive"}
{"compound": "CN1CCC(OC(=O)C(Oc2ccc(Cl)cc2)Oc2ccc(Cl)cc2)CC1", "outcome": "inactive"}
{"compound": "O=C(O)/C=C/c1ccccc1", "outcome": "inactive"}
{"compound": "F[Si-2](F)(F)(F)(F)F", "outcome": "inactive"}
{"compound": "O=C(O)COc1ccc(CCNS(=O)(=O)c2ccccc2)s1", "outcome": "inactive"}
{"compound": "NCCN", "outcome": "inactive"}

###

Test system: CP203
assay explanation: qHTS profiling for inhibitors of Plasmodium falciparum proliferation (AID 504749); also: nearly all actives have a fitted effect of over 60% in size
condition: P. falciparum in erythrocytes, SYBR Green DNA, 72 h; series mostly up to 28.7 µM
Results filed as inconclusive are left out. Calls of active or inactive are those of the source. Calls follow the shape of the dose curve; as a rule, active = well fitted inhibition curve with a large enough effect; inconclusive = small, poorly fitted or top-dose-only effect; inactive = flat fitted curve, though single readings scatter.
Outcome codes: active, inactive

{"molecule": "CCC(O)c1ccccc1 (centres undefined)", "classification": "inactive"}
{"molecule": "COc1cc(C)c(/C=C/C(C)=C/C=C/C(C)=C/C(=O)O)c(C)c1C", "classification": "inactive"}
{"molecule": "COc1ccc2c(=O)c(C)c(-c3ccccc3)oc2c1CN(C)C", "classification": "inactive"}
{"molecule": "CC(/C=C/C=C(\\C)C(=O)O[C@@H]1O[C@H](CO[C@@H]2O[C@H](CO)[C@@H](O)[C@H](O)[C@H]2O)[C@@H](O)[C@H](O)[C@H]1O)=C\\C=C\\C=C(C)\\C=C\\C=C(/C)C(=O)O[C@@H]1O[C@H](CO[C@@H]2O[C@H](CO)[C@@H](O)[C@H](O)[C@H]2O)[C@@H](O)[C@H](O)[C@H]1O", "classification": "inactive"}
{"molecule": "COc1cc(NCCCC(C)N)c2ncccc2c1 (centres undefined)", "classification": "active"}
{"molecule": "CC(=O)NCCCS(=O)(=O)O", "classification": "inactive"}
{"molecule": "C=CC(=O)O", "classification": "inactive"}
{"molecule": "NC(=S)NS(=O)(=O)c1ccc(N)cc1", "classification": "inactive"}
{"molecule": "CO[C@H]1C[C@@H]2CC[C@@H](C)[C@@](O)(O2)C(=O)C(=O)N2CCCC[C@H]2C(=O)O[C@H]([C@H](C)C[C@@H]2CC[C@@H](OC(=O)C(C)(CO)CO)[C@H](OC)C2)CC(=O)[C@H](C)/C=C(\\C)[C@@H](O)[C@@H](OC)C(=O)[C@H](C)C[C@H](C)/C=C/C=C/C=C/1C", "classification": "inactive"}
{"molecule": "O=P(O)(O)OP(=O)(O)OP(=O)(O)O", "classification": "inactive"}
{"molecule": "CC(C)(Oc1ccc(C2CCCc3ccccc32)cc1)C(=O)O (centres undefined)", "classification": "inactive"}
{"molecule": "O=C(O)CC/C=C\\CC[C@@H]1[C@@H](N2CCCCC2)[C@@H](O)C[C@@H]1OCc1ccc(-c2ccccc2)cc1", "classification": "inactive"}
{"molecule": "Cc1cc2nc3c(=O)[nH]c(=O)nc-3n(C[C@H](O)[C@H](O)[C@H](O)COP(=O)(O)OP(=O)(O)OC[C@H]3O[C@@H](n4cnc5c(N)ncnc54)[C@H](O)[C@@H]3O)c2cc1C", "classification": "inactive"}
{"molecule": "CCCc1ccc(C(=O)O)cc1", "classification": "inactive"}
